Form field: pEC50 (one value per entry).
# TARGET OF ASSAY: T1, human ROR1 (full-length, on the cell surface) (human, UniProt Q01973 30-937)
# T1 construct: whole, on cells; the tumour cell lines carry their own ROR1; also called Ba/F3-ROR1 cells; Jeko-1
# T1 sequence (Q01973 30-937): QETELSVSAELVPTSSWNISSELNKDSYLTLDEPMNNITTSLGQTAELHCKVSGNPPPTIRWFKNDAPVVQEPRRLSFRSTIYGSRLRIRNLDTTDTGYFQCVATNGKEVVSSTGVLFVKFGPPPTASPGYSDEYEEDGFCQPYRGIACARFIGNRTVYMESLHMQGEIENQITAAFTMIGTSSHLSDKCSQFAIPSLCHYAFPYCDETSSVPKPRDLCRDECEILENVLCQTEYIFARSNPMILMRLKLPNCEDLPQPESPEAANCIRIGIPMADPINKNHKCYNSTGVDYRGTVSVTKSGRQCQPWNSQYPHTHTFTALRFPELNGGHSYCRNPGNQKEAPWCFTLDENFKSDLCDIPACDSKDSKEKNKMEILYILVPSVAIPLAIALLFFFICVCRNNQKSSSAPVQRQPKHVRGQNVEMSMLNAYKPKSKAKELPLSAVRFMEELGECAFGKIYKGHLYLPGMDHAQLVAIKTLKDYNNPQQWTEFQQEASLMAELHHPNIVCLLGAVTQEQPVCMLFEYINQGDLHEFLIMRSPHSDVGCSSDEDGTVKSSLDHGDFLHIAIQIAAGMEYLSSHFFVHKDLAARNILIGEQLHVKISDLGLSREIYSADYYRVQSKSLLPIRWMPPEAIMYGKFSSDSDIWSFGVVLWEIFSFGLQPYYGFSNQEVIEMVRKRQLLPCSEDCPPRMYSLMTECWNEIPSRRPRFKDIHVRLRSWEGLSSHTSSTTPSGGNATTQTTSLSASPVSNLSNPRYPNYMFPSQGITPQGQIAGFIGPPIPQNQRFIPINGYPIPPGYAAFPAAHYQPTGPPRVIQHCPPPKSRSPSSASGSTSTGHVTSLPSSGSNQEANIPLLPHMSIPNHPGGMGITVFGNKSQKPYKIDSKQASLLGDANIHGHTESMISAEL
# TEST: flow cytometry, A549 cells
# Description: The affinities of the anti-human ROR1 humanized antibodies to Ba/F3-ROR1, Jeko-1, HT-29 and A549 cells were detected by flow cytometry. The specific experimental steps were as follows: the BaBF3-ROR1, Jeko-1, HT-29 and A549 cells were incubated with the purified humanized antibodies of different concentration gradients on ice for 30 minutes, and the anti-ROR1 antibody UC961 with human IgG1 and the anti-TNP antibody were used as positive and negative controls, respectively.
Scale: negative log10 of molar concentration, which is what pEC50 denotes.

Tell me its pEC50 given 3D8-Hu97 (antibody, human IgG1, kappa, V domains shown, humanized, human IgG1 / kappa) VH: EVQLVESGGGLVQPGGSLRLSCAASGFTFSSYAMSWVRQAPEKRLEWVSSISNGGSTYYPDSVKGRFTISRDNSKNTLYLQMNSLRAEDTAVYYCARVNYYGYGDYAMDYWGQGTLVTVSS VL: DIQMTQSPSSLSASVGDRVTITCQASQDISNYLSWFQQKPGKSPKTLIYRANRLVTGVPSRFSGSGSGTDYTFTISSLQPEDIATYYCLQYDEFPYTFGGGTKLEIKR as the entry.
9.24

More entries:
Tell me its pEC50 given 19F6-Hu14 (antibody, human IgG1, kappa, V domains shown, humanized, human IgG1 / kappa) VH: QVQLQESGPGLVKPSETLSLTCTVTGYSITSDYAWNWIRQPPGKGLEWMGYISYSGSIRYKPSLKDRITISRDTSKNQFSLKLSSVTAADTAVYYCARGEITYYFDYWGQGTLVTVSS VL: DIQMTQSPSSLSASVGDRVTITCQTSTDIDDDLNWYQQKPGKPPKLLISEGNTLETGVPSRFSGSGSGTDFTFTISSLQPEDIADYYCLQSNDLPLTFGAGTKLEIKR as the entry.
9.92
